- test.method.notes: probe aCHRDL2 binding to arrayed compounds – biochemical, biotinylated probe, 635/667 nm fluorescence, primary screen (AID 1100)
- run.conditions: small-molecule microarray, higher = more signal
endpoint.label: composite z-score
Lab note: jot the number down without any unit.

**Query** Fill in: composite z-score of O=P(NCC1(CC2(c3ccccc3)CO2)CC1)(c1ccccc1)c1ccccc1 (configuration not stated) is ___
**Result** 1.02

**Query** Again, but for COCCOC(=O)N1C(=O)[C@@]2(c3cc(C#CC4(O)CCCCCC4)ccc31)[C@H](c1ccc(O)cc1)N1[C@H](c3ccccc3)[C@H](c3ccccc3)OC(=O)[C@H]1[C@@H]2C(=O)N1CCc2cc(OC)c(OC)cc2C1
**Result** 0.687

**Query** Again, but for CCCCN1CC=CC23O[C@@H]4C=CCCOC(=O)C4[C@H]2C(=O)N(CCCO)[C@@H]3C1=O (some centres not stated)
**Result** -0.114

**Query** Again, but for COc1ccc(C#Cc2ccc3c(c2)[C@]2(C(=O)N3)[C@H](C(=O)N3CCc4cc(OC)c(OC)cc4C3)[C@H]3C(=O)O[C@H](c4ccccc4)[C@H](c4ccccc4)N3[C@@H]2c2ccc(OCCO)cc2)cc1
**Result** -0.13

**Query** Again, but for COC(=O)[C@@]1(Cc2ccc(OC)cc2)[C@H]2c3cc(C(=O)N4CCCC4)n(CCN4CCOCC4)c3C[C@H]2CN1C(=O)c1ccccc1
**Result** 1.52

**Query** Again, but for Cc1cccc(/C=C/C=O)c1
**Result** 0.558

**Query** Again, but for CN1C(=O)C2C=CC(C(O)c3ccc(Br)cc3)N(Nc3ccccc3)C2C1=O (configuration not stated)
**Result** 1.03
